target: EPHB2 (UniProt P29323); experiment: phosphorylation enrichment, bacterial display (enrichment ratio); higher = better substrate or ligand; peptides without Tyr show the background;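 note: 11-residue human phosphosite peptides and single-mutation variants displayed on the E. coli surface, counted by deep sequencing, each peptide's frequency after selection divided by its frequency in the unselected input library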;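 note: frequency after pTyr selection over input frequency; kinase dosed for 20-30% of maximal phosphorylation in three min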
Sequence (P29323 whole entry, looked up): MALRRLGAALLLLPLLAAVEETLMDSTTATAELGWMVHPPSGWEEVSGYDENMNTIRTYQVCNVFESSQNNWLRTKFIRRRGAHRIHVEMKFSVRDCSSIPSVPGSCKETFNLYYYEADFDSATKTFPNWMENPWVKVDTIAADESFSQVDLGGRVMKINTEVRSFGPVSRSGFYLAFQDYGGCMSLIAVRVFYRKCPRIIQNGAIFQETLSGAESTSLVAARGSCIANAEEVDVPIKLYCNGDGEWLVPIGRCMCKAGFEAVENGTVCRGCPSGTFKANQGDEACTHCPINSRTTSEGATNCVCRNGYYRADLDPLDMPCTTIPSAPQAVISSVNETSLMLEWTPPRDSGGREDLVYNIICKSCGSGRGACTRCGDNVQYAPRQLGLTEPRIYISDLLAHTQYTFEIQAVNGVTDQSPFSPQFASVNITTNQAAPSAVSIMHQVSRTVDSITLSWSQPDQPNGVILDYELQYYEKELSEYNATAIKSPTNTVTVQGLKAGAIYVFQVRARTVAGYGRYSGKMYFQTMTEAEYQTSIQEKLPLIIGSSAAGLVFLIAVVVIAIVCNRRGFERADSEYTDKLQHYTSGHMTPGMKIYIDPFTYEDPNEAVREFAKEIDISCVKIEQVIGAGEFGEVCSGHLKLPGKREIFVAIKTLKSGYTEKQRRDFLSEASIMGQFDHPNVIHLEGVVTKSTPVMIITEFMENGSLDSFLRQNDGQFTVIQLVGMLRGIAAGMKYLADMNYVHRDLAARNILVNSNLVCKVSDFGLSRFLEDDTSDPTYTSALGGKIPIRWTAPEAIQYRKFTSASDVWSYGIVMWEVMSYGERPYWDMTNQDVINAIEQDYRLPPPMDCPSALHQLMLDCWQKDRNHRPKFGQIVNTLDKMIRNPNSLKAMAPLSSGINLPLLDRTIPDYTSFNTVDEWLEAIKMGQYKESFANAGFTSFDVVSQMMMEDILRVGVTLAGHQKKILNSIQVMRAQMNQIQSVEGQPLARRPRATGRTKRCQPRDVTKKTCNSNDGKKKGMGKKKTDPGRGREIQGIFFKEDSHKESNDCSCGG
Group membership follows phosphorylation enrichment per the scheme zone 1 = under 0.5, zone 2 = from 0.5 up to 0.6, zone 3 = 0.6 and over

Study these solved cases before continuing.
* DFPGNYSGFDD [POLR1C_Y33_YF] | zone 2
* FGSIMYEFVGK [SLC18A1_Y251_V249I] | zone 3
* VKMLPYTEVTR [GDI1_Y93_L92P] | zone 1
* YFVVEYRDQKP [MUC17_Y4332] | zone 3

Would you kindly look at the next entry?
Q) Sort SNVEQYQAMVT [TPR_Y965] into one of the categories.
A) zone 1

====

molecular target: Hck (UniProt P08631); test: phosphorylation enrichment, bacterial display (enrichment ratio); higher = better substrate or ligand; peptides without Tyr show the background
Sequence (P08631 whole entry, looked up): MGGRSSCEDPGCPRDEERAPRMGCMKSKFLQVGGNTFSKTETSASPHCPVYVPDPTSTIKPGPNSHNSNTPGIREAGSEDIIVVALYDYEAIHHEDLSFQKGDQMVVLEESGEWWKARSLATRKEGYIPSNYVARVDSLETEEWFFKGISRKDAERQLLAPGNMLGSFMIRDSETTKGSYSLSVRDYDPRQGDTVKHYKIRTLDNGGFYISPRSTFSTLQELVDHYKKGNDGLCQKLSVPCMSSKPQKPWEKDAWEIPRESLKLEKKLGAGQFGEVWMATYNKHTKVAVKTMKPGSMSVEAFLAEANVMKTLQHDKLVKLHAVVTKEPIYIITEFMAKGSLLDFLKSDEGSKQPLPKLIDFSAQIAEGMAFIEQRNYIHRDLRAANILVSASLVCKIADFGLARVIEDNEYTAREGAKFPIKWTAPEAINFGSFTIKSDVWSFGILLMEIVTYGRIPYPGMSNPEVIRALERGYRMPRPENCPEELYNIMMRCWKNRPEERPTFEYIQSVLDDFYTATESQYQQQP
observed property: phosphorylation enrichment
Numbers only.

- RRIHSYRSHLW [VHL_Y112_G114S]: 0.601
- WCKPLYFSCAV [MMS22L_Y28_P27L]: 0.607

Consider the following items and state reported phosphorylation enrichment for each.
1. DNAYQYMLTDR [MYH7_Y164]
2. ETDSEYVKLSK [C7orf57_Y70_A74S]

A)
[0.608, 0.604]

====

biological target: FGFR3 (UniProt P22607); assay: phosphorylation enrichment, bacterial display (enrichment ratio); higher = better substrate or ligand; peptides without Tyr show the background
Sequence (P22607 whole entry, looked up): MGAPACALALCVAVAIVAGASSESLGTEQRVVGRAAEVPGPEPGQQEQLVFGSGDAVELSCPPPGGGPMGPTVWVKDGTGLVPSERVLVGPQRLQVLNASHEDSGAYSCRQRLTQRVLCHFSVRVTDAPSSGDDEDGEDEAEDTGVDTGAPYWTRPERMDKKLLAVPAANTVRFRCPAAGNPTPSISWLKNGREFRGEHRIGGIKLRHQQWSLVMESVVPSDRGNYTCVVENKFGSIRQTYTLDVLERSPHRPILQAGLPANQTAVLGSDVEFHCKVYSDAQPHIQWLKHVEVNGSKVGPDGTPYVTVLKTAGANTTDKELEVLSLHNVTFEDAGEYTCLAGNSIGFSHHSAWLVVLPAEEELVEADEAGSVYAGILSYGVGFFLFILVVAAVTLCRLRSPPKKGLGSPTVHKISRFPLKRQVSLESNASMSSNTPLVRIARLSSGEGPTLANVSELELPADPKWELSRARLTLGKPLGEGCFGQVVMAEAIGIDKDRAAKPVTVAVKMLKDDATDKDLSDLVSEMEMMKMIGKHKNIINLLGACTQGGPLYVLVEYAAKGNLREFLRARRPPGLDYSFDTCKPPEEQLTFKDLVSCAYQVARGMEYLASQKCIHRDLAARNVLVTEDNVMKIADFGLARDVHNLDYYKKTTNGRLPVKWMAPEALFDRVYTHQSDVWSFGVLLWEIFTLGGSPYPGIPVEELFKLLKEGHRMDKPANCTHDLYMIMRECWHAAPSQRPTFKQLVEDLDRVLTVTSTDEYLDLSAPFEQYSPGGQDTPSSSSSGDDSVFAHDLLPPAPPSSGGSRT
Group membership follows phosphorylation enrichment per the scheme category 1 = under 0.7, category 2 = from 0.7 up to 1, category 3 = 1 and over

Study these solved cases before continuing.
- PLDAEYFTLQI [TP53_Y327_G325A]: category 3
- HLLRIYYDITD [MMP27_Y307_W304L]: category 3
- TYGVVYRAKDK [CDK11B_Y453]: category 1
- RREGVYRNNID [PTEN_Y46_L42R]: category 1
- GDYLSYREFHS [ERBIN_Y1107]: category 3

Would you kindly look at the next entry?
Q) Sort PARLEYFENEK [IRS1_Y46_YF] into one of the categories.
A) category 2

====

molecular target: Jak2 (UniProt O60674); assay: phosphorylation enrichment, bacterial display (enrichment ratio); higher = better substrate or ligand; peptides without Tyr show the background
Sequence (O60674 whole entry, looked up): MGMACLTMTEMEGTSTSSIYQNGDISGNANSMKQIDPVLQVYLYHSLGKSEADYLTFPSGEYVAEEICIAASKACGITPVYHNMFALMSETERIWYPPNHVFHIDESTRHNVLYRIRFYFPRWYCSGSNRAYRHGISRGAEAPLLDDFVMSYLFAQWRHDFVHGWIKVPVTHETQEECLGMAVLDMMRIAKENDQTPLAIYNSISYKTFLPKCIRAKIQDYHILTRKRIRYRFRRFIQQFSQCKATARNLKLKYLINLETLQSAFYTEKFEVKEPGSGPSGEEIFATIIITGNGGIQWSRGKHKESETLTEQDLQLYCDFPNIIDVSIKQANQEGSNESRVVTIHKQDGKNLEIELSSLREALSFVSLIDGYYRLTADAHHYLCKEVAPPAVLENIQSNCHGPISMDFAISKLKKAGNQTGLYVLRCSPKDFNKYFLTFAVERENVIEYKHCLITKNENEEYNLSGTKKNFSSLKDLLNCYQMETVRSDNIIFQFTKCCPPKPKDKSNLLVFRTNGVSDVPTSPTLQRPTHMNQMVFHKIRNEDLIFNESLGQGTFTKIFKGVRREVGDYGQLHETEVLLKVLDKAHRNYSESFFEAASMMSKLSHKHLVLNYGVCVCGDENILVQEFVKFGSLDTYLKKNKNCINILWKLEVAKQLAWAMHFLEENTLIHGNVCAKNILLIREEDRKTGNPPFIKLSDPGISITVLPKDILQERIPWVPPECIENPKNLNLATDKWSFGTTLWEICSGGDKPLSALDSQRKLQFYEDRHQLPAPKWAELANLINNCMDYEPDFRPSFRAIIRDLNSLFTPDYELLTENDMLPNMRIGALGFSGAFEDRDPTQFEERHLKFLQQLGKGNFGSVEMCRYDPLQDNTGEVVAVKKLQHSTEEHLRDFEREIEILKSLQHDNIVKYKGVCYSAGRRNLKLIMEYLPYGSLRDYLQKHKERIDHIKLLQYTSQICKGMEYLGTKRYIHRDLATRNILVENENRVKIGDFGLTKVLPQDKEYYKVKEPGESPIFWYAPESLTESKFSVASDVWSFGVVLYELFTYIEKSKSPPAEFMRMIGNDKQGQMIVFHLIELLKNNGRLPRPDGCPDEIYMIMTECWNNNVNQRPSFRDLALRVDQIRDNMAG
For each entry below, report its phosphorylation enrichment value.
One number for each entry.

# annotated cases, reported phosphorylation enrichment shown
• PPGRSYSPYDY [TNS1_Y793] = 1.07
• IRCQGYSHRIL [MYO3B_Y993_R990C] = 0.649
• QMVRMYASSFM [AVPR2_Y124_G122R_YF] = 0.769

Consider the following items and state reported phosphorylation enrichment for each.
1. MEIHAYRKLSE [LMNA_Y376_L380S]
2. RLLVVYPWTQR [HBB_Y36]
3. KILTHYKQPHT [KMT2D_Y5349_R5351Q]
4. ARGMEYLASQK [FGFR2_Y616]
5. RSGIYYKPESL [L2HGDH_Y103_H98R]

A)
1: 0.678; 2: 0.967; 3: 0.726; 4: 0.563; 5: 2.29

====

For each entry below, report its phosphorylation enrichment value.
test system: c-Src; test: phosphorylation enrichment, bacterial display (enrichment ratio); higher = better substrate or ligand; peptides without Tyr show the background

# annotated cases, reported phosphorylation enrichment shown
• KTVQDYLKKFF [MMP8_Y36_E38K_YF] = 0.488
• NSRFTCKLEVK [USH2A_Y3747_Y3747C_YF] = 0.504
• FRARAYSFRGP [CHGA_Y381_G382S] = 0.507

Q) What phosphorylation enrichment value was documented for this sequence, ARVDTYCRHNF [HLA-DRB1_Y107_A103R_YF] ?
A) 0.496

====

target: Hck (UniProt P08631); assay: phosphorylation enrichment, bacterial display (enrichment ratio); higher = better substrate or ligand; peptides without Tyr show the background
observed property: phosphorylation enrichment
Answers are plain numbers.

* PARLEYFENEK [IRS1_Y46_YF] | 0.709
* VEFAKYGSLRG [RET_Y809_YF] | 0.488
* AKLVQYYMEHH [PTPN11_Y80_E76K] | 0.637
* AEYGLYRAMVR [VSX2_Y222_G223R] | 9.69
* FLTSSYINIST [IL23R_Y178_YF] | 0.422

Consider the following items and state reported phosphorylation enrichment for each.
1. RAIGFYSATSK [FAM120A_Y328_YF]
2. SNKLYYQLEQE [PDPR_Y110]
3. HPWPRYTTRAP [FNDC1_Y1281_Q1280R]
4. KMKGDYYCYLA [YWHAG_Y130_R132C]

A)
1: 0.774; 2: 0.922; 3: 0.849; 4: 1.58

Consider the following items and state reported phosphorylation enrichment for each.
1. IKNSGYISQYL [EIF2AK3_Y585_R588Q]
2. LIPIKYKAMKK [MYD88_Y257]
3. LVSCTYQLARR [FGFR2_Y608_G613R]
4. DVMDLYKTLRG [NR3C1_Y30_F29L]

A)
[0.39, 0.342, 0.891, 0.904]

Consider the following items and state reported phosphorylation enrichment for each.
1. EATKGYPDDPT [G6PD_Y322_L323P]
2. GKFFQYDTWNQ [IGF2_Y116_K120N]

A)
1: 0.508; 2: 0.741

====

test system: c-Abl (mouse); assay: phosphorylation enrichment, bacterial display (enrichment ratio); higher = better substrate or ligand; peptides without Tyr show the background
Lab note: anything with phosphorylation enrichment at or over 0.7 counts as Condition met; the rest go in Condition not met.

Study these solved cases before continuing.
* GGDAVYTNGAI [RFX2_Y82] | Condition not met
* EHAGEYGAEAL [HBA1_Y25_A20E] | Condition not met
* SLNEGYARDFD [FBP1_Y216] | Condition met
* SYPREYGSQEG [RBM10_Y48] | Condition not met
* EEETDYTPVWC [UROD_Y30_G25E] | Condition met
* TSYSGYRYHRH [NKAPL_Y94] | Condition not met
* ASFSLYEPAKM [MKI67_Y340_P338S] | Condition met
* RGESFYQDRMN [RARS_Y338] | Condition met

Q) Given the entry QHVPDYRQNVY [PCDHGA1_Y890] , answer whether its phosphorylation enrichment meets or surpasses 0.7.
A) Condition not met

Q) How about this sequence: VPVPGYTKLPE [SPRR3_Y146]
A) Condition met

Q) How about this sequence: QDLFLYQTHSE [PKHD1_Y255]
A) Condition met

Q) How about this sequence: HESEIYGKVCF [CSRP3_Y57_C58G_YF]
A) Condition met

Q) How about this sequence: SFVMVYEGNAR [INSR_Y1038_G1035V]
A) Condition not met

Q) How about this sequence: DVSVVYSEVKT [FCRL4_Y493]
A) Condition met

Q) How about this sequence: KKHFSYAWPFF [BRDT_Y291_YF]
A) Condition not met

Q) How about this sequence: LKLWDYRRGRC [WDR5B_Y239_S240R]
A) Condition met

Q) How about this sequence: KEDSVYGSQSV [NFKB2_Y868_A867V]
A) Condition not met

Q) How about this sequence: FRQNVYIPGSN [PCDHGA1_Y895_YF]
A) Condition not met

Q) How about this sequence: ILKPDYQPLAV [HYDIN_Y1072_I1077V]
A) Condition met

Q) How about this sequence: SMGMKYLEEKN [ZAP70_Y451]
A) Condition not met

Q) How about this sequence: RSFPSYFTSHV [NEFL_Y442_YF]
A) Condition met

Q) How about this sequence: SRVTQYERDFE [SNX1_Y463]
A) Condition met

Q) How about this sequence: LVSCAYQVARG [FGFR1_Y605]
A) Condition not met

Q) How about this sequence: ILGLEYSLRLP [HELZ2_Y1304_V1308L]
A) Condition met

Q) How about this sequence: FPAVGYHKPHI [IDS_Y225_L221P]
A) Condition not met

Q) How about this sequence: KMKGDYYCYLA [YWHAG_Y130_R132C]
A) Condition met

Q) How about this sequence: RFLRGYRQHAF [HLA-A_Y137_D140H_YF]
A) Condition met

Q) How about this sequence: TLGPFYPSLLF [CRYAA_Y18_R21L]
A) Condition not met

Q) How about this sequence: ENQEIYQKAFD [KPNA1_Y493]
A) Condition met

====

biological target: EPHB2 (UniProt P29323); experiment: phosphorylation enrichment, bacterial display (enrichment ratio); higher = better substrate or ligand; peptides without Tyr show the background
observed property: phosphorylation enrichment
One number for each entry.

Consider the following items and state reported phosphorylation enrichment for each.
1. CSEETYRLMLQ [RET_Y981_M980T]
2. GVFSRYFTTFD [CLCA1_Y661_YF]
3. DGDTRYSTFSE [TKTL1_Y318]

A)
1: 0.611; 2: 0.512; 3: 0.487

Consider the following items and state reported phosphorylation enrichment for each.
1. ADARMYGVHPW [PLP1_Y207_L210H]
2. DEEDFYQGSME [ASCC1_Y36]

A)
1: 0.493; 2: 0.595
